Target: ERα (Homo sapiens)
Sequence (P03372 1-595): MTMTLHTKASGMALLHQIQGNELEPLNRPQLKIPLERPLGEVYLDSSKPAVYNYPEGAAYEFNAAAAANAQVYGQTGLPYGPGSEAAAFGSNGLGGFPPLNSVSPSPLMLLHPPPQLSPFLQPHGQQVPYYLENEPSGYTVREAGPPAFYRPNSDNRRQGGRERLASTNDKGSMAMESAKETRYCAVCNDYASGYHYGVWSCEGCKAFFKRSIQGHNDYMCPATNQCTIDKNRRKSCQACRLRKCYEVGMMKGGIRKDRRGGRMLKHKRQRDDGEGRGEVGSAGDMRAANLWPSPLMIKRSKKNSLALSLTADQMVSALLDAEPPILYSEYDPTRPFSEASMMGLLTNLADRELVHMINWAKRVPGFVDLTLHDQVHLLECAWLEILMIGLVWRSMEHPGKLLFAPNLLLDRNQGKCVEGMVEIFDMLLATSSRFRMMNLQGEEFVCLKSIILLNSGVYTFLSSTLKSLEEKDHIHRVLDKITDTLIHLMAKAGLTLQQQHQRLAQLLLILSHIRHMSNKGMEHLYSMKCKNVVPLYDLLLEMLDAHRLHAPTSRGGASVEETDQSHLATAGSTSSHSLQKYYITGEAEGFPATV
Assay: fluorescence polarization competition with ES2 tracer, recombinant ER
Experimental endpoint: IC50

Fill in reported IC50 for this entry: Oc1ccc(Nc2nc(-c3ccc(Cl)cc3)cs2)cc1 [SKI-II]
85.8 nM
